// provenance: patent US7420060B2

- Test system: ischemic heart isolated from white rat
- runDescription: Cardioprotective effect on isolated ischemic rat heart (Langendorff, 30 min global ischemia / 30 min reperfusion)
- runConditions: 10 μM; after 30 min reperfusion
Catalogue of LDH (concentration of lactate dehydogenase) values
observedProperty: LDH (concentration of lactate dehydogenase) (unit/g)

compound	readoutValue
CC1(C)Oc2ccc(C#N)cc2[C@@H](NC(=NC#N)Nc2ccc(Cl)cc2)[C@@H]1O [BMS-180448, reference compound]	17.2
COC(OC)[C@]1(C)Oc2ccc([N+](=O)[O-])cc2[C@H](n2c(=S)oc3cccc(C)c32)[C@H]1O [Example 6]	9.6
COC(OC)[C@]1(C)Oc2ccc([N+](=O)[O-])cc2[C@H](n2c(=S)oc3cc(C)ccc32)[C@H]1O [Example 5]	20.2
COC(OC)[C@@]1(C)Oc2ccc([N+](=O)[O-])cc2[C@H](n2c(=S)oc3ccccc32)[C@H]1O [Example 3]	12.6
COc1ccc2oc(=S)n([C@H]3c4cc([N+](=O)[O-])ccc4O[C@@](C)(C(OC)OC)[C@@H]3O)c2c1 [Example 10]	17.3
COC(OC)[C@]1(C)Oc2ccc([N+](=O)[O-])cc2[C@H](n2c(=S)oc3ccccc32)[C@H]1O [Example 1]	4.6
COC(OC)[C@]1(C)Oc2ccc([N+](=O)[O-])cc2[C@H](n2c(=S)oc3ccc(Cl)cc32)[C@H]1O [Example 7]	21.1
